Could you please report measured MIC for the items listed next?
# Test system: Ogataea angusta
# Method Description: Antifungal activity against Hansenula polymorpha WT2 with ade1 met6 genotype by agar dilution method
# Assay type: functional

Q) Consider the compound shown here: Cc1ccc(/C=C/C(=O)c2ccc(Cl)cc2)cc1 What is its recorded MIC?
A) > 40 µg/mL

Q) Could you do the same for O=C(/C=C/c1ccccc1)c1ccc(Cl)cc1 , please?
A) > 40 µg/mL

Q) Could you do the same for O=C(/C=C/c1cccc(O)c1)c1ccc(Cl)cc1 , please?
A) < 20 µg/mL

Q) Could you do the same for COc1cccc(/C=C/C(=O)c2ccc(Cl)cc2)c1O , please?
A) > 40 µg/mL

Q) Could you do the same for COc1cc(/C=C/C(=O)c2ccc(Cl)cc2)ccc1O , please?
A) > 40 µg/mL

Q) Could you do the same for CC(=O)Nc1ccc(/C=C/C(=O)c2ccc(Cl)cc2)cc1 , please?
A) > 40 µg/mL

Q) Could you do the same for COc1ccc(/C=C/C(=O)c2ccc(Cl)cc2)cc1O , please?
A) > 40 µg/mL

Q) Could you do the same for O=C(/C=C/c1ccc(Cl)cc1)c1ccc(Cl)cc1 , please?
A) > 40 µg/mL

Q) Could you do the same for COc1ccc(/C=C/C(=O)c2ccccc2)cc1O , please?
A) > 40 µg/mL

Q) Could you do the same for O=C(/C=C/c1ccc(O)cc1)c1ccc(Cl)cc1 , please?
A) > 40 µg/mL

Q) Could you do the same for O=C(/C=C/c1cccc(O)c1)c1ccccc1 [3-HYDROXY CHALCONE] , please?
A) 25 µg/mL

Q) Could you do the same for COc1ccc(/C=C/C(=O)c2ccc(Cl)cc2)cc1 , please?
A) > 40 µg/mL

* * *

Could you please report measured MIC for the items listed next?
# System: Kluyveromyces lactis
# Method Description: Antifungal activity against Kluyveromyces lactis 1-6A with MATalpha uraA lys arg genotype by agar dilution method
# Assay type: functional

Q) Consider the compound shown here: O=C(/C=C/c1ccc(O)c(O)c1)c1ccccc1 What is its recorded MIC?
A) > 40 µg/mL

Q) Could you do the same for O=C(/C=C/c1ccc(O)c(O)c1)c1ccc(Cl)cc1 , please?
A) > 40 µg/mL

Q) Could you do the same for COc1cccc(/C=C/C(=O)c2ccc(Cl)cc2)c1 , please?
A) > 40 µg/mL

Q) Could you do the same for O=C(/C=C/c1ccc(O)cc1)c1ccc(Cl)cc1 , please?
A) > 40 µg/mL

Q) Could you do the same for O=C(/C=C/c1ccccc1)c1ccccc1 , please?
A) < 20 µg/mL

Q) Could you do the same for O=C(/C=C/c1ccc(Cl)cc1)c1ccc(Cl)cc1 , please?
A) > 40 µg/mL

Q) Could you do the same for O=C(/C=C/c1cccc(O)c1)c1ccc(Cl)cc1 , please?
A) < 20 µg/mL

Q) Could you do the same for O=C(/C=C/C=C/c1ccccc1)c1ccc(Cl)cc1 , please?
A) > 40 µg/mL

Q) Could you do the same for COc1ccc(/C=C/C(=O)c2ccccc2)cc1O , please?
A) 25 µg/mL

* * *

Could you please report measured MIC for the items listed next?
# System: Saccharomyces cerevisiae
# Method Description: Antifungal activity against diploid Saccharomyces cerevisiae 1a by agar dilution method
# Format: functional

Q) Consider the molecule shown here: COc1cccc(/C=C/C(=O)c2ccc(Cl)cc2)c1O What is its recorded MIC?
A) > 40 µg/mL

Q) Could you do the same for COc1cccc(/C=C/C(=O)c2ccc(Cl)cc2)c1 , please?
A) > 40 µg/mL

Q) Could you do the same for COc1cc(/C=C/C(=O)c2ccc(Cl)cc2)cc(OC)c1O , please?
A) > 40 µg/mL

Q) Could you do the same for O=C(/C=C/c1cccc(O)c1)c1ccccc1 [3-HYDROXY CHALCONE] , please?
A) 25 µg/mL

Q) Could you do the same for O=C(/C=C/c1ccc(Cl)cc1)c1ccc(Cl)cc1 , please?
A) > 40 µg/mL

Q) Could you do the same for CC(=O)Nc1ccc(/C=C/C(=O)c2ccc(Cl)cc2)cc1 , please?
A) > 40 µg/mL

* * *

Could you please report measured MIC for the items listed next?
# Test system: Kluyveromyces lactis
# Method Description: Antifungal activity against Kluyveromyces lactis 2-18B with MATalpha metA1 ura3 leu2 genotype by agar dilution method
# Format: functional

Q) Consider the compound shown here: O=C(/C=C/c1ccc([N+](=O)[O-])cc1)c1ccc(Cl)cc1 What is its recorded MIC?
A) > 40 µg/mL

Q) Could you do the same for COc1cccc(/C=C/C(=O)c2ccc(Cl)cc2)c1O , please?
A) > 40 µg/mL

Q) Could you do the same for O=C(/C=C/c1ccc(O)c(O)c1)c1ccccc1 , please?
A) > 40 µg/mL

Q) Could you do the same for Cc1ccc(/C=C/C(=O)c2ccc(Cl)cc2)cc1 , please?
A) > 40 µg/mL

Q) Could you do the same for O=C(/C=C/c1ccccc1)c1ccccc1 [CHALCONE] , please?
A) < 20 µg/mL

Q) Could you do the same for COc1cc(/C=C/C(=O)c2ccc(Cl)cc2)ccc1O , please?
A) > 40 µg/mL

Q) Could you do the same for COc1ccc(/C=C/C(=O)c2ccc(Cl)cc2)cc1O , please?
A) > 40 µg/mL

* * *

Could you please report measured MIC for the items listed next?
# Test system: Ogataea angusta
# Method Description: Antifungal activity against Hansenula polymorpha CD3 with ade1 leu2 cds3 genotype by agar dilution method
# Type: functional

Q) Consider the molecule shown here: COc1ccc(/C=C/C(=O)c2ccc(Cl)cc2)cc1 What is its recorded MIC?
A) > 40 µg/mL

Q) Could you do the same for COc1cc(/C=C/C(=O)c2ccc(Cl)cc2)ccc1O , please?
A) > 40 µg/mL

Q) Could you do the same for COc1cc(/C=C/C(=O)c2ccc(Cl)cc2)cc(OC)c1O , please?
A) > 40 µg/mL

Q) Could you do the same for COc1ccc(/C=C/C(=O)c2ccc(Cl)cc2)cc1O , please?
A) > 40 µg/mL

Q) Could you do the same for O=C(/C=C/c1cccc(O)c1)c1ccc(Cl)cc1 , please?
A) < 20 µg/mL

Q) Could you do the same for O=C(/C=C/c1ccccc1)c1ccccc1 [CHALCONE] , please?
A) 30 µg/mL

Q) Could you do the same for COc1cccc(/C=C/C(=O)c2ccc(Cl)cc2)c1 , please?
A) > 40 µg/mL

* * *

Could you please report measured MIC for the items listed next?
# System: Ogataea angusta
# Method Description: Antifungal activity against Hansenula polymorpha D22 with arg1/arg1 ade1/ADE1 leu2/leu2 URA3/ura3 CYS1/cys1 genotype by agar dilution method
# Assay type: functional

Q) Consider the compound shown here: O=C(/C=C/c1cccc(O)c1)c1ccccc1 [3-HYDROXY CHALCONE] What is its recorded MIC?
A) 25 µg/mL

Q) Could you do the same for COc1ccc(/C=C/C(=O)c2ccc(Cl)cc2)cc1O , please?
A) > 40 µg/mL

Q) Could you do the same for O=C(/C=C/c1ccc(O)cc1)c1ccc(Cl)cc1 , please?
A) > 40 µg/mL

Q) Could you do the same for COc1ccc(/C=C/C(=O)c2ccc(Cl)cc2)cc1 , please?
A) > 40 µg/mL

Q) Could you do the same for O=C(/C=C/c1ccccc1)c1ccccc1 , please?
A) 30 µg/mL

Q) Could you do the same for O=C(/C=C/c1cccc(O)c1)c1ccc(Cl)cc1 , please?
A) < 20 µg/mL

These data points were gathered from ChEMBL document CHEMBL1158182.
